Tested On: human LOX-1 receptor (Homo sapiens)
Construct: the cellular HTS screen was done using full-length LOX-1 and human oxLDL; expressed in transfected cells; host or cells: CHO-K1 T-REx (CHO-Trex-hLOX1 clone), vector pT-Rex-EXP-30-hLOX
Method Summary: LOX-1 cellular oxLDL uptake assay (AF594-oxLDL, CHO-Trex-hLOX1)
Assay type: cell-based
Run Parameters: single curve of Fig. 1c, n = 2 per concentration, R^2 = 0.98; read-out: IC50, representative concentration response curve
Metric: IC50

Recorded IC50 (compound CCCN1C(=O)c2ccc(Cl)cc2Nc2ncccc21 ): 7.2 µM

* * *

Method Summary: PAMPA passive permeability
Type: in vitro ADME
Run Parameters: PAMPA; n = 1
Metric: Papp (×10⁻⁶ cm/s)
Record the value in ×10⁻⁶ cm/s, omitting the unit from your answer.

Recorded Papp (compound CCCN1C(=O)c2ccc(Cl)cc2Nc2ncccc21 [BI-0115] ): 1.5

* * *

Method Summary: High throughput solubility
Format: physicochemical
Run Parameters: aqueous buffer, pH 7, aqueous buffer, kinetic from dmso stock; pH7; n = 1; read-out: Solubility pH7
Metric: solubility at 24 h (µg/mL)
Record the value in µg/mL, omitting the unit from your answer.

Recorded solubility at 24 h (compound CCCN1C(=O)c2ccc(Cl)cc2Nc2ncccc21 ): 1

* * *

Method Summary: High throughput solubility
Type: physicochemical
Run Parameters: aqueous buffer, pH 4, aqueous buffer, kinetic from dmso stock; pH4; n = 1; read-out: Solubility pH4
Metric: solubility at 24 h (µg/mL)
Record the value in µg/mL, omitting the unit from your answer.

Recorded solubility at 24 h (molecule CCCN1C(=O)c2ccc(Cl)cc2Nc2ncccc21 [BI-0115] ): 1
